The measurements presented in this section are drawn from patent US12297194B2.

Exercise: for every item that follows, state its recorded GI50.
# Measurement target: Ba/F3 EGFR Del19/T790M/C797S mutants (Homo sapiens, UniProt P00533, T790M/C797S, cells depend on it, form not given)
# Sequence (P00533 with tags, fused parts or gaps DEL746-750/T790M/C797S, form open): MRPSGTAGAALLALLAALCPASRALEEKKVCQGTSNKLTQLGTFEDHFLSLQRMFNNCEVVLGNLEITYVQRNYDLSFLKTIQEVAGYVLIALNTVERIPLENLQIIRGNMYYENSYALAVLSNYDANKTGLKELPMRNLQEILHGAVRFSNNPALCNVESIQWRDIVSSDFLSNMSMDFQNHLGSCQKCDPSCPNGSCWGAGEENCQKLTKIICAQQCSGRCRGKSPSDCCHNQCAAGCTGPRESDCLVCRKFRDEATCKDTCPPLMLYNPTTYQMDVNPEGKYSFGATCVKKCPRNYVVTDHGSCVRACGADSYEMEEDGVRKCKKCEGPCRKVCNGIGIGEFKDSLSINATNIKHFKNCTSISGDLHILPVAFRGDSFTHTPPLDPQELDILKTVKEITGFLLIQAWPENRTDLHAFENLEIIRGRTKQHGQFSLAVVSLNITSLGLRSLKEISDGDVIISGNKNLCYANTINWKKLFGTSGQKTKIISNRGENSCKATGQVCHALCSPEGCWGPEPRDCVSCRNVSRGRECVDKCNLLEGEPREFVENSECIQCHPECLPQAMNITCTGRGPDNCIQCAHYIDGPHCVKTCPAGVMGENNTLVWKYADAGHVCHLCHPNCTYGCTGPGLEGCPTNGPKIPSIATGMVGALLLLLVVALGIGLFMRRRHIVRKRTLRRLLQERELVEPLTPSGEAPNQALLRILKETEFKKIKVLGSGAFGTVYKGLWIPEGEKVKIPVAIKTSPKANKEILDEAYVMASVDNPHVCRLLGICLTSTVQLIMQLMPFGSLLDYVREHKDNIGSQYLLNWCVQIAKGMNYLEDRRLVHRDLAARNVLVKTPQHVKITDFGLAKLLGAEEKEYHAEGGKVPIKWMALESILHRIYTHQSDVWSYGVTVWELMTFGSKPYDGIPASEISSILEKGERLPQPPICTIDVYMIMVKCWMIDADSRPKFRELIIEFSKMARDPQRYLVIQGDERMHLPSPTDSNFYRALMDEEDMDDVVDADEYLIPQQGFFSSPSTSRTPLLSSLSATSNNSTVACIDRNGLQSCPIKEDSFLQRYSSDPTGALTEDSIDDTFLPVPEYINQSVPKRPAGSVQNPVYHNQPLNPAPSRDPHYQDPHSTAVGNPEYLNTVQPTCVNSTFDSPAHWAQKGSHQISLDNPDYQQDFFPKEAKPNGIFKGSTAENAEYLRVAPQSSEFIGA
# Test description: CellTiter-Glo cell viability, Ba/F3 EGFR Del19/T790M/C797S cells
# Format: cell-based, murine
# Condition set: 72 hours, read-out: Ba/F3 EGFR mutant cell (IC50, nM) D/T/C
Numbers only here, please. The scale is nM.

Q: Fill blank: measured GI50 of the compound CCc1cc(Nc2ncc(Cl)c(Nc3cccc(OC)c3NS(C)(=O)=O)n2)c(OC)cc1N1CCC(N2CCOCC2)CC1 [Example C20] is ____.
Ans: 21

Q: Follow-up entry: CCc1cc(Nc2ncc(Cl)c(Nc3ccc4c(c3N(C)S(C)(=O)=O)OCCO4)n2)c(OC)cc1N1CCC(N2CCOCC2)CC1 [Example C30]
Ans: 13

Q: Try CCCc1cc(Nc2ncc(Cl)c(Nc3ccc4nccnc4c3N(C)S(C)(=O)=O)n2)c(OC)cc1N1CCC(N2CCOCC2)CC1 [Example A41] next.
Ans: 28

Q: Try CCc1cc(Nc2ncc(Br)c(Nc3ccc4nccnc4c3N(C)S(C)(=O)=O)n2)c(OC)cc1N1CC2CCC1CN2C(C)C (stereo not shown) [Example B30] next.
Ans: 2

Q: Query COc1cc(N2CCC(N3CCOCC3)CC2)c(C)cc1Nc1ncc(Cl)c(Nc2ccc3nccnc3c2NS(C)(=O)=O)n1 [Example A31] next
Ans: 131

Q: Also, COc1cc(N2CCC(N3CCN(C)CC3)CC2)ccc1Nc1ncc(Cl)c(Nc2ccc3scnc3c2NS(C)(=O)=O)n1 [Example C8] please.
Ans: 170

Q: Entry COc1cc(N2CCC(N3CCN(C)CC3)CC2)c(C(F)(F)F)cc1Nc1ncc(Cl)c(Nc2ccc3nccnc3c2NS(C)(=O)=O)n1 [Example A7] please
Ans: 36
